# test.target: human MIF binding to its receptor, CD74 (Homo sapiens, UniProt P14174)
# Sequence (P14174 2-115 limits assumed): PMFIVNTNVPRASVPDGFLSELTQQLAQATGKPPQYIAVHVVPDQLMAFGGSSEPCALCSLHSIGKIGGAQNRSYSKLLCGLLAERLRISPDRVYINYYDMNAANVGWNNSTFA
# protocol.details: MIF-CD74 binding assay
# run.parameters: NA = measured, but not active
measured.metric: IC50 (µM) MIF-CD74 binding assay

>  <compound>
O=c1oc2c(O)c(O)ccc2cc1-c1nc2ccccc2s1 [Compound 11]

>  <meas.value>
inactive

$$$$
>  <compound>
CC(=O)Nc1cccc2ccc(-c3cnc4ccccc4c3)nc12 [Compound 28]

>  <meas.value>
inactive

$$$$
>  <compound>
O=c1c2ccc(F)cc2sn1-c1ccc(Cl)cc1 [Compound 32]

>  <meas.value>
inactive

$$$$
